- target.under.test: RSV prefusion F (preF), DS-Cav1 (Respiratory Syncytial Virus)
- test.details: BLI, IgG on anti-human IgG sensor, 100 nM antigen
Task for the reader: assign each of the following binders its reported pKd.
Note on units: pKd is unitless, being -log10 of a concentration expressed in mol/L.

Prompt line: Looking for the measured pKd of ADI-41155 (antibody, V domains shown) VH: QVQLQESGPGLVKPSETLSLTCTVSGGSIGNNFYYWGWIRQPPGKGLEWIGSIYYSGTTYDNPSLKSRVTISVEPSKNQFSLKLSSVTAADTAVYHCARRYCDSTRCYEAFDIWGQGTTVTVSS VL: SYELTQPPSASGTPGQRVTISCSGSSSNIGSNYVSWYQQLPGTAPKLLIYKNDQRPSGVPDRFSGSKSGTSASLAISGLRSEDEAEYYCAAWDDSLSGFYVFGTGTKVTVL , can you help?
Response line: 8.45

Prompt line: Then this binder: ADI-41183 (antibody, V domains shown) VH: QVQLQESGAGLVKPSETLSLTCGVYGESFSGHSWSWIRQPPGRGLEWIGEINQSGTTKYNPSLRSRVTISVDRSKNEFSLKVSSVTAADTAVYFCARYFRSFYTIGPDYYYMDVWGKGTTVTVSS VL: EIVLTQSPSSLSASVGDRVTITCRASQNINNYLNWYQQKPGKAPRLLIYAASSLQSGVPSRFTGSGSGTDFTLTIRSLQSEDFATYYCQHSYSSSLLTFGGGTKVDIK
Response line: 8.39

Prompt line: Then this binder: ADI-41231 (antibody, V domains shown) VH: QVQLVQSGAEVKKPGESLKISCKGSGYSFTNNWVGWVRQMPGKGLEWMGIIFPGDSDTRYSPSFRGQVTISVDTSINTAFLQWNSLGASDTAMYYCAMTDYNYSFKSWGQGTLVTVSS VL: NFMLTQPHSVSESPGKTITISCTRSSGNIGNNYVQWYQQRPGSSFTTVIYEDYQRPSGVPDRFSGSIDSSSNSATLTISGLKTEDEADYYCQSYDSSNPYVFGTGTKVTVL
Response line: 8.52

Prompt line: Then this binder: ADI-41197 (antibody, V domains shown) VH: QVQLVQSGAEVKKPGASVKVSCKASGYTFSGYYMHWVRQAPGQGLEWVGRINPKSGDTVYAQKFQGRVTMTRDTSISTAYMELSRLISDDTAKYYCARQEDHYYGSGNFYNSFDFWGQGTLVTVSS VL: ETTLTQSPSSLSASVGDRVTITCRASQSISSNLNWYQQKPGKAPKLLIYGASTLQSGVPSRFSGSGSGTDFTLTISSLQPEDLATYYCQQSYSNPGKTFGQGTKVDIK
Response line: 9.10

Prompt line: Then this binder: ADI-41205 (antibody, V domains shown) VH: QVQLQESGPGLVKPSGTLSLTCAVSGGSISSTNWWSWVRQPPGKGLEWIGEIYHSGSTNYNPSLKSRVTISVDKSNNQFSLNLSSVTAADTAVYYCARGVITYRGSWFLQYFDYWGQGTLVTVSS VL: DIRVTQSPDSLAVSLGERATINCKSSQSLFYSSNNQNYLAWYQQKPGQPPKLLIYWASTRQSGVPHRFSGSGSGTDFTLTISSLQAEDVAVYYCQQYYSSPLTFGGGTKVEIK
Response line: 8.93
